- Target System: IGF-1R (Homo sapiens)
- Sequence (P08069 31-1367): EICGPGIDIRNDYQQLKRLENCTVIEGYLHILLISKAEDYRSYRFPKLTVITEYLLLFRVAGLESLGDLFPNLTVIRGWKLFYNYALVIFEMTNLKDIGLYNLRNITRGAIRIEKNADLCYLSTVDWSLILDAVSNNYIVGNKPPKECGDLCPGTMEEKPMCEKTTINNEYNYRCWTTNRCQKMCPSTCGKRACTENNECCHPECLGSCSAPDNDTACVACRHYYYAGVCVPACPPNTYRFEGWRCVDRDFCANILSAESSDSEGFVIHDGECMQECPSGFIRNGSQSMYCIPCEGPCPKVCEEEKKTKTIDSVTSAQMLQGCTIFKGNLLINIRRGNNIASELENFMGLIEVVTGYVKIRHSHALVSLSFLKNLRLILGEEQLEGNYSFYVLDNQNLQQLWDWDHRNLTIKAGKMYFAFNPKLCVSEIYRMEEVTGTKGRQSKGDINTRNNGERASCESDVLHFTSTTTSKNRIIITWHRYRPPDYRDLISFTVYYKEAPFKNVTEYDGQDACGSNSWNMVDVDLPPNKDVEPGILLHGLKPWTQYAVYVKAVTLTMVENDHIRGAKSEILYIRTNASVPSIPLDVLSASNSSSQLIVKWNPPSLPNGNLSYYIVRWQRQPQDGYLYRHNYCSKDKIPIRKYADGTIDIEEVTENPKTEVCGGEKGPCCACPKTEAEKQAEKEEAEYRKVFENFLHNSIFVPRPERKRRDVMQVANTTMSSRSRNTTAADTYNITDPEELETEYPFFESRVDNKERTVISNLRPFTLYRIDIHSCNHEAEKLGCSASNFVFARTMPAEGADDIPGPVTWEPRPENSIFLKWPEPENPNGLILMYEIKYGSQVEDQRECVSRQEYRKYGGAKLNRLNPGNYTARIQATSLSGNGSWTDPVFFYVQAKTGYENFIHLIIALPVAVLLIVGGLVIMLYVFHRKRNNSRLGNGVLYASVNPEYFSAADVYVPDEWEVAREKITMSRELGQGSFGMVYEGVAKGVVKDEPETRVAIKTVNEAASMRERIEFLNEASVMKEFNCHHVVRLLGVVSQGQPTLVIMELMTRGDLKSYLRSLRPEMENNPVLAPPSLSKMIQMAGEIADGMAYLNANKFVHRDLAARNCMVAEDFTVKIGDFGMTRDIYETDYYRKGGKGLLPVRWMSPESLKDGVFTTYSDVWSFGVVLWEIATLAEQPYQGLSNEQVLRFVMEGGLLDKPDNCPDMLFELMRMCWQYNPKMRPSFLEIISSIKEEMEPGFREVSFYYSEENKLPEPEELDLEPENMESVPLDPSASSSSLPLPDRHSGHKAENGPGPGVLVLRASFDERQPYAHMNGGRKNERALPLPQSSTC
- Experiment Description: Kinase profiling (radiometric filter-binding)
- Type: biochemical
- Condition Description: 1 µM inhibitor, read-out: Residual activity, %
Square brackets hold non-standard residues; d marks the D form. Peptide text beside a SMILES is read from it. * marks the point of attachment. X3 = O=C(CCCCCNCc1nc2c(sc3cc(Br)cnc32)c(=O)[nH]1)*
Readout Kind: remaining activity at 1 µM (%)

{"Compound": "N=C(N)NCCC[C@@H](NC(=O)CNC(=O)[C@@H](CCCNC(=N)N)NC(=O)[C@@H](CCCNC(=N)N)NC(=O)CCCCCCCNCc1nc2c(sc3cc(Br)cnc32)c(=O)[nH]1)C(=O)N[C@H](CCCCN)C(N)=O", "Measured": 77}
{"Compound": "N=C(N)NCCC[C@@H](NC(=O)CNC(=O)[C@@H](CCCNC(=N)N)NC(=O)[C@@H](CCCNC(=N)N)NC(=O)CCCCCCCNCc1nc2c(sc3ccc(Br)cc32)c(=O)[nH]1)C(=O)N[C@H](CCCCN)C(N)=O", "Measured": 91}
{"Compound": "N=C(N)NCCC[C@@H](NC(=O)CCCCCNCc1nc2c(sc3cc(Br)cnc32)c(=O)[nH]1)C(=O)N[C@H](CCCNC(=N)N)C(=O)N[C@H](CCCNC(=N)N)C(=O)N[C@H](CCCNC(=N)N)C(=O)N[C@H](CCCNC(=N)N)C(=O)N[C@H](CCCNC(=N)N)C(=O)N[C@H](CCCCN)C(N)=O [ARC-3126, BPTP-Ahx-(D-Arg)6-D-Lys-NH2] (X3-[dR][dR][dR][dR][dR][dR][dK]-NH2)", "Measured": 114}
{"Compound": "N=C(N)NCCC[C@@H](NC(=O)CNC(=O)[C@@H](CCCNC(=N)N)NC(=O)[C@@H](CCCNC(=N)N)NC(=O)Cn1cc(CNCc2nc3c(sc4ccc(Br)cc43)c(=O)[nH]2)nn1)C(=O)N[C@H](CCCCN)C(N)=O", "Measured": 58}

* * *

- Target System: MST4 (Homo sapiens, UniProt Q9P289)
- Sequence (Q9P289 whole entry): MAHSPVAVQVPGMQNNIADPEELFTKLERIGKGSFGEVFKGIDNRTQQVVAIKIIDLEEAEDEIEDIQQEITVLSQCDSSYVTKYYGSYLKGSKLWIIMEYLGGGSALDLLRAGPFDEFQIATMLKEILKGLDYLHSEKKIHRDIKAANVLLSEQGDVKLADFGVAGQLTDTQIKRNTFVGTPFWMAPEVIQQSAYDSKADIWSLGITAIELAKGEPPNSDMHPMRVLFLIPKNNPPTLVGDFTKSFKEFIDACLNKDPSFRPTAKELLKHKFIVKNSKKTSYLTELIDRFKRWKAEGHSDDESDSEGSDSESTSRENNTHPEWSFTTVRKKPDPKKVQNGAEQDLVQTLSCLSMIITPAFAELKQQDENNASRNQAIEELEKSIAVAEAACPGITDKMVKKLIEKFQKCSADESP
- Experiment Description: Kinase profiling (radiometric filter-binding)
- Type: biochemical
- Condition Description: MST4, 1 µM inhibitor; read-out: Residual activity, %
Square brackets hold non-standard residues; d marks the D form. Peptide text beside a SMILES is read from it. * marks the point of attachment. X3 = O=C(CCCCCNCc1nc2c(sc3cc(Br)cnc32)c(=O)[nH]1)*
Readout Kind: remaining activity at 1 µM (%)

{"Compound": "N=C(N)NCCC[C@@H](NC(=O)CCCCCNC(=O)Cn1cnc2c(I)c(I)c(I)c(I)c21)C(=O)N[C@H](CCCNC(=N)N)C(=O)N[C@H](CCCNC(=N)N)C(=O)N[C@H](CCCNC(=N)N)C(=O)N[C@H](CCCNC(=N)N)C(=O)N[C@H](CCCNC(=N)N)C(=O)N[C@H](CCCCN)C(N)=O", "Measured": 71}
{"Compound": "N=C(N)NCCC[C@@H](NC(=O)CNC(=O)[C@@H](CCCNC(=N)N)NC(=O)[C@@H](CCCNC(=N)N)NC(=O)CCCCCCCNCc1nc2c(sc3ccc(Br)cc32)c(=O)[nH]1)C(=O)N[C@H](CCCCN)C(N)=O", "Measured": 121}
{"Compound": "N=C(N)NCCC[C@@H](NC(=O)CNC(=O)[C@@H](CCCNC(=N)N)NC(=O)[C@@H](CCCNC(=N)N)NC(=O)CCCCCCCNCc1nc2c(sc3cc(Br)cnc32)c(=O)[nH]1)C(=O)N[C@H](CCCCN)C(N)=O", "Measured": 143}
{"Compound": "N=C(N)NCCC[C@@H](NC(=O)CCCCCNCc1nc2c(sc3cc(Br)cnc32)c(=O)[nH]1)C(=O)N[C@H](CCCNC(=N)N)C(=O)N[C@H](CCCNC(=N)N)C(=O)N[C@H](CCCNC(=N)N)C(=O)N[C@H](CCCNC(=N)N)C(=O)N[C@H](CCCNC(=N)N)C(=O)N[C@H](CCCCN)C(N)=O [ARC-3126, BPTP-Ahx-(D-Arg)6-D-Lys-NH2] (X3-[dR][dR][dR][dR][dR][dR][dK]-NH2)", "Measured": 125}
{"Compound": "N=C(N)NCCC[C@@H](NC(=O)CNC(=O)[C@@H](CCCNC(=N)N)NC(=O)[C@@H](CCCNC(=N)N)NC(=O)Cn1cc(CNCc2nc3c(sc4ccc(Br)cc43)c(=O)[nH]2)nn1)C(=O)N[C@H](CCCCN)C(N)=O", "Measured": 95}

Hello, the source for this data is paper PMC8307404, in case you need it.
